System: carrageenan-induced mouse paw edema
procedure.summary: In vivo suppression against carrageenan-induced paw edema
experimental.context: Table 3; mice dosed 10 mg of compound per kg
Excerpt: CXCR4 plays a role in the recruitment of inflammatory cells to sites of inflammation. Blocking CXCR4 is a therapeutic strategy in inflammatory diseases. A carrageenan-induced mouse paw edema model as an efficient model to evaluate the in vivo CXCR4 antagonistic activity for CXCR4 inhibitors. […]
recorded.endpoint: Carageenan (%)

- Fc1cccc(NCc2cccc(CNc3cccc(F)c3)n2)c1: 20.3
- COc1cccc(NCc2cccc(CNc3cccc(OC)c3)n2)c1: 20.1
- CCc1ccc(NCc2cccc(CNc3ccc(CC)cc3)n2)cc1: 42.0
- FC(F)(F)c1ccc(NCc2cccc(CNc3ccc(C(F)(F)F)cc3)n2)cc1: 20.3
- c1ccc(NCc2ccc(CNc3ccccn3)cc2)nc1 [WZ811, reference compound]: 40
- CCc1ccccc1NCc1cccc(CNc2ccccc2CC)n1: 18.1
- c1cc(CN2CCOCC2)nc(CN2CCOCC2)c1: 39.1
